- system tested: T1, IL-11 (Cat. 12225-HNCE, Sino Biological Inc.) (UniProt P20809 22-199, limits assumed)
- T1 sequence (looked up): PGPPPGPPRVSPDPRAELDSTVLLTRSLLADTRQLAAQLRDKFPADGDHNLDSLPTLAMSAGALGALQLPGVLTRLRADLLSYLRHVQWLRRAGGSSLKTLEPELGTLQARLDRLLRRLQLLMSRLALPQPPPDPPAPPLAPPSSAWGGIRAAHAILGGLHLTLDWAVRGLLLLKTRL
- test: cell-based or functional assay
Criterion: Blocking activity (IC50), STAT3-luc reporter meeting or surpassing 0.01 µg/mL. Met: fulfilled. Not met: not fulfilled.

{"binder": "hz18A10-VH + hz18A10-VLm18 (antibody, V domains shown, Constant regions not restated for this antibody) VH: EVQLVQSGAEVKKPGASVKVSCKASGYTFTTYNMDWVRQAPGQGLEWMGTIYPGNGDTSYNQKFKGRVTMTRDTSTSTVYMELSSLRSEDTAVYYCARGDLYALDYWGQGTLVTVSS VL: DIQMTQSPSSLSASVGDRVTITCKASQSVYRDVAWYQQKPGKAPKLLIYRASSRYTGVPSRFSGSGSGTDFTFTISSLQPEDIATYYCQHDYSSPYTFGQGTKLEIK", "classification": "fulfilled"}

Data request: Does the reported Blocking activity (IC50), STAT3-luc reporter for hz18A10-VHm12 + hz18A10-VLm19 (antibody, V domains shown, Constant regions not restated for this antibody) VH: EVQLVQSGAEVKKPGASVKVSCKASGYTFTHYDMDWVRQAPGQGLEWMGTIYPGNGDTSYNQKFKGRVTMTRDTSTSTVYMELSSLRSEDTAVYYCARGDLYALDYWGQGTLVTVSS VL: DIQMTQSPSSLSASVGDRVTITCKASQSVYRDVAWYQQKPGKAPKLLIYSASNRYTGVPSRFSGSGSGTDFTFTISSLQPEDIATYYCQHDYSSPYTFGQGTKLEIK fall at or above the 0.01 µg/mL mark?
Data returned: fulfilled

Data request: Ok, now hz8C8-VHm1 + hz8C8-VLm7 (antibody, human IgG1, kappa, V domains shown, human IgG1 constant regions; also called hz8C8m7) VH: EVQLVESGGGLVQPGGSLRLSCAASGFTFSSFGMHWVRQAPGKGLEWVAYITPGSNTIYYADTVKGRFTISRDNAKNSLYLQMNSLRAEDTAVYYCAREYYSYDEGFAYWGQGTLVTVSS VL: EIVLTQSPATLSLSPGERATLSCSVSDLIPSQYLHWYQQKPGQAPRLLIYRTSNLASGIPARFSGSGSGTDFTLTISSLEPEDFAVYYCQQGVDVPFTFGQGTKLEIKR
Data returned: fulfilled

Data request: Ok, now hz8C8-VHm1 + hz8C8-VLm2 (antibody, human IgG1, kappa, V domains shown, human IgG1 constant regions) VH: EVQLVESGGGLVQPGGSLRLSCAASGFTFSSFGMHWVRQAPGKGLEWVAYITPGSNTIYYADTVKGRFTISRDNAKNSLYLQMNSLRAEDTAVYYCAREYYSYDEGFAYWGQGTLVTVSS VL: EIVLTQSPATLSLSPGERATLSCSVSSSISSKYLHWYQQKPGQAPRLLIYRTSNLASGIPARFSGSGSGTDFTLTISSLEPEDFAVYYCQQGVDVPFTFGQGTKLEIKR
Data returned: fulfilled

Data request: Ok, now hz8C8-VHm1-m10 + hz8C8-VLm7-m2 (antibody, human IgG1, kappa, V domains shown, human IgG1 constant regions) VH: EVQLVESGGGLVQPGGSLRLSCAASGFTFSSFGMHWVRQAPGKGLEWVAYITPGSNTIYYADTVKGRFTISRDNAKNSLYLQMNSLRAEDTAVYYCAREYYSSDEGFAYWGQGTLVTVSS VL: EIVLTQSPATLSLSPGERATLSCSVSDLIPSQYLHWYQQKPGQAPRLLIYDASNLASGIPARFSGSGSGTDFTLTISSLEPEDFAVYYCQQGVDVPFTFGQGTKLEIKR
Data returned: not fulfilled
